system: HeLa cells; conditions: microscopy
Overview of reported Cytotoxicity MCC across a group of molecules:

Please review the following examples before continuing.
molecule=NC1=NC2(CCN(C(=O)C3CCC3)CC2)N(c2cccc(Cl)c2)C(N)=N1 study_target="HeLa cells" result=">100 µM"
molecule="COCCN1C(N)=NC(N)=NC12CCN(C(=O)NC1CCC(C)CC1)CC2 (centres unmarked)" study_target="HeLa cells" result=">100 µM"
molecule=CC(C)(C)OC(=O)N1CCC2(CC1)N=C(N)N=C(N)N2c1cccc(Cl)c1 study_target="HeLa cells" result=">100 µM"
molecule=NC1=NC2(CCN(C(=O)Nc3ccc(F)cc3)CC2)N(c2cccc(Cl)c2)C(N)=N1 study_target="HeLa cells" result="≥100 µM"

Next molecule, please.
For the record CCCCC(=O)N1CCC2(CC1)N=C(N)N=C(N)N2c1cccc(OC)c1 , what value of Cytotoxicity MCC is listed for HeLa cells?
>100 µM

====

system: influenza B/Ned/537/05; experiment: Influenza B antiviral assay in MDCK cells; type: cell-based; conditions: Influenza B virus, read-out: mean EC50 anti-influenza B activity
observation_type: EC50

Data request, read-out EC50, for Cc1ccc(C(=O)N2CCC3(CC2)N=C(N)N=C(N)N3c2cccc(Cl)c2)cc1
~200 nM

====

test system: HeLa cells; details: microscopy
observation_type: Cytotoxicity MCC

Please review the following examples before continuing.
structure_smiles=COCCN1C(N)=NC(N)=NC12CCN(S(=O)(=O)c1ccccc1)CC2 observation_type="Cytotoxicity MCC" result=">100 µM"
structure_smiles=Cc1ccc(C(=O)N2CCC3(CC2)N=C(N)N=C(N)N3c2cccc(Cl)c2)cc1 observation_type="Cytotoxicity MCC" result="≥100 µM"
structure_smiles=COc1cccc(N2C(N)=NC(N)=NC23CCN(C(=O)c2ccc(C(F)(F)F)cc2C)CC3)c1 observation_type="Cytotoxicity MCC" result=">100 µM"
structure_smiles=COc1cccc(N2C(N)=NC(N)=NC23CCNCC3)c1 observation_type="Cytotoxicity MCC" result=">100 µM"

Next compound, please.
Data request, read-out Cytotoxicity MCC, for NC1=NC2(CCN(C(=O)c3ccc4ccccc4c3)CC2)N(c2cccc(Cl)c2)C(N)=N1
≥100 µM

Origin of the recorded values: paper PMC7115377
